Tested on: LPS-induced NO production in RAW 264.7 macrophages
ASSAY OVERVIEW: Inhibition of LPS-induced NO production in RAW 264.7 macrophages (Griess reagent)
Assay type: cell-based
SETUP CONDITIONS: LPS-induced RAW 264.7 macrophages; 4 h pretreatment, then 48 h with 2 μg/mL LPS
Method: Then, 100-μL aliquots of the exponentially growing RAW 264.7 cells were seeded in 96-well culture plates at 1 × 10^4 cells/well at 37 °C for overnight in DMEM medium with 0.1% FBS. […] The nitrite concentration (NO production) in the culture supernatant was measured using Nitric Oxide assay kit mainly containing Griess reagent. The absorbance was measured at 540 nm using a microplate reader (M5). […] The cell viability was evaluated by SRB colorimetric assay.
REPORTED ENDPOINT: IC50 (µM)
Report the figure in µM without appending any unit label.

**Q:** Provide the documented IC50 with LPS-induced NO production in RAW 264.7 macrophages as the system for N=C(N)NN [Aminoguanidine, reference compound]
**A:** 10.9
